# test-system: 5-HT2c (Homo sapiens)
# Construct: purchased Euroscreen/BioSignal Packard Inc
# Sequence (P28335 33-458): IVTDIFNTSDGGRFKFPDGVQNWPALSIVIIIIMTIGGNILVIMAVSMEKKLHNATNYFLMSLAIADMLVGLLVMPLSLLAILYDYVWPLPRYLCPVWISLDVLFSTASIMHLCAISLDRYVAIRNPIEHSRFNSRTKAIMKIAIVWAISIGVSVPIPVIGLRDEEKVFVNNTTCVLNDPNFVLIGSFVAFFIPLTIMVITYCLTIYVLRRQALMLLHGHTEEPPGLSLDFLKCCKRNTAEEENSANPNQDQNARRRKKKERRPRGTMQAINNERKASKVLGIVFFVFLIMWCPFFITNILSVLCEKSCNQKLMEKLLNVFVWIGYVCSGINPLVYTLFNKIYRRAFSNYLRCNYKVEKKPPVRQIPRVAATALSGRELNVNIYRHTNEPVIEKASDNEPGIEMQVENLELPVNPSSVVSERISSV
# method-description: Radioligand binding, 5-HT2c ([3H]Mesulergine)
# particulars: read-out: Binding affinity (Inhibition rate % at 10 μM) 5HT2c
Would you kindly list inhibition at 10 µM for each of these compounds?
Expressed in %, but write only the number.

Query string: Hi! What's the reported inhibition at 10 µM for COc1ccc(C2(C)C(=O)Nc3cc(Cl)cc(Cl)c3C2=O)cc1[N+](=O)[O-] (centres unmarked) [Example 21] on 5-HT2c (Homo sapiens)?
Result string: 10.8

Query string: Test system 5-HT2c (Homo sapiens); read-out inhibition at 10 µM; what value for CC1(c2cccc(O)c2)C(=O)Nc2cc(Cl)cc(Cl)c2C1=O (centres unmarked) [Example 20] ?
Result string: 4.7

Query string: Kindly state the measured inhibition at 10 µM obtained for CC1(c2cccc(OCc3ccccc3)c2)C(=O)Nc2cc(Cl)cc(Cl)c2C1=O (centres unmarked) [Example 19] with 5-HT2c (Homo sapiens).
Result string: 0

Query string: Record lookup: for 5-HT2c (Homo sapiens), what inhibition at 10 µM belongs to COc1ccc(C2(C)C(=O)Nc3c(Br)cc(Br)cc3C2=O)cc1[N+](=O)[O-] (centres unmarked) [Example 28] ?
Result string: 13.7

Query string: Form field - read-out: inhibition at 10 µM; system: 5-HT2c (Homo sapiens); submitted item: COc1cc(Cl)c2c(c1)NC(=O)C(C)(c1ccccc1)C2=O (centres unmarked) [Example 5]
Result string: 20.5

Query string: Return inhibition at 10 µM measured with 5-HT2c (Homo sapiens) given this compound: COc1ccc(C2(C)C(=O)Nc3c(Br)cc(Br)cc3C2=O)cc1N (centres unmarked) [Example 29]
Result string: 40.6

Query string: API: value(readout=inhibition at 10 µM, system=5-HT2c (Homo sapiens)) for record COc1cc(Cl)cc2c1C(=O)C(C)(c1ccccc1)C(=O)N2 (centres unmarked) [Example 6]
Result string: 13.5

Query string: inhibition at 10 µM of CC1(c2ccccc2)C(=O)Nc2cc(Br)cc(Br)c2C1=O (centres unmarked) [Example 4] on 5-HT2c (Homo sapiens)?
Result string: 29.8

Query string: Give the reported inhibition at 10 µM for CCN(CC)c1ccc(C2(C)C(=O)Nc3cc(Cl)cc(Cl)c3C2=O)cc1 (centres unmarked) [Example 42] (system: 5-HT2c (Homo sapiens)).
Result string: 13.7

Query string: For the record CC1(c2ccc(O)c(O)c2)C(=O)Nc2ccccc2C1=O (centres unmarked) [Example 32] , what value of inhibition at 10 µM is listed for 5-HT2c (Homo sapiens)?
Result string: 31.9

Query string: Give the reported inhibition at 10 µM for CC1(c2ccc(Br)cc2Br)C(=O)Nc2cc(Cl)cc(Cl)c2C1=O (centres unmarked) [Example 27] (system: 5-HT2c (Homo sapiens)).
Result string: 28.1

Query string: // fetch 5-HT2c (Homo sapiens) inhibition at 10 µM for CC1(c2ccc(Cl)cc2)C(=O)Nc2cc(Cl)cc(Cl)c2C1=O (centres unmarked) [Example 17]
Result string: 21.2

Query string: Provide value of inhibition at 10 µM for this record tested with 5-HT2c (Homo sapiens): C[C@H](NC(=O)Oc1cccc(C2(C)C(=O)Nc3cc(Cl)cc(Cl)c3C2=O)c1)c1ccccc1 (some centres unmarked) [Example 26]
Result string: 9.1

Query string: Tell me reported inhibition at 10 µM for C[C@H](NC(=O)Nc1cccc([C@@]2(C)C(=O)Nc3cc(Cl)cc(Cl)c3C2=O)c1)c1ccccc1 [Example 43] , tested with 5-HT2c (Homo sapiens).
Result string: 0

Query string: Entry COc1ccc(C2(C)C(=O)Nc3cc(N4CCN(C)CC4)cc(Cl)c3C2=O)cc1 (centres unmarked) [Example 46] , system 5-HT2c (Homo sapiens): what inhibition at 10 µM was measured?
Result string: 10.7

Query string: # value lookup — system 5-HT2c (Homo sapiens), readout inhibition at 10 µM, item CNc1ccc(C2(C)C(=O)Nc3cc(Cl)cc(Cl)c3C2=O)cc1 (centres unmarked) [Example 39]
Result string: 13.1

Query string: Please tell me: inhibition at 10 µM of CC1(c2ccc([N+](=O)[O-])cc2)C(=O)Nc2cc(Cl)c(Cl)cc2C1=O (centres unmarked) [Example 36] , system 5-HT2c (Homo sapiens)?
Result string: 8.2

Query string: What measured inhibition at 10 µM is associated with CC1(c2ccc(I)cc2)C(=O)Nc2cc(Cl)cc(Cl)c2C1=O (centres unmarked) [Example 16] on 5-HT2c (Homo sapiens)?
Result string: 34.5

Query string: Value wanted: inhibition at 10 µM (5-HT2c (Homo sapiens)) of entry CC1(c2ccc(O)c(N)c2)C(=O)Nc2c(Br)cc(Br)cc2C1=O (centres unmarked) [Example 30]
Result string: 5.4

Query string: Given the entry CC1(c2ccc(O)cc2)C(=O)Nc2cc(Cl)cc(Cl)c2C1=O (centres unmarked) [Example 13] , what inhibition at 10 µM was observed with 5-HT2c (Homo sapiens)?
Result string: 39.4

Query string: Provide the documented inhibition at 10 µM with 5-HT2c (Homo sapiens) as the system for CN1CCN(c2ccc3c(c2)NC(=O)C(C)(c2ccc([N+](=O)[O-])cc2)C3=O)CC1 (centres unmarked) [Example 51]
Result string: 20.3

Query string: Short answer please: inhibition at 10 µM, 5-HT2c (Homo sapiens), entry CC1(c2ccc(O)c(Br)c2)C(=O)Nc2cc(Cl)cc(Cl)c2C1=O (centres unmarked) [Example 24]
Result string: 22.8

Query string: Can you look up inhibition at 10 µM on 5-HT2c (Homo sapiens) for CN1CCN(c2cc(Cl)c3c(c2)NC(=O)C(C)(c2ccc([N+](=O)[O-])cc2)C3=O)CC1 (centres unmarked) [Example 49] ?
Result string: 19.8

Query string: Value wanted: inhibition at 10 µM (5-HT2c (Homo sapiens)) of entry CC1(c2ccc([N+](=O)[O-])cc2)C(=O)Nc2cc(Cl)ccc2C1=O (centres unmarked) [Example 37]
Result string: 1.4

Query string: Please provide the recorded inhibition at 10 µM for CC1(c2ccc(N)cc2)C(=O)Nc2cc(Cl)ccc2C1=O (centres unmarked) [Example 38] , tested on 5-HT2c (Homo sapiens).
Result string: 20.7

Query string: Hi! What's the reported inhibition at 10 µM for CC1(c2ccc(Br)cc2Br)C(=O)Nc2cc(Cl)ccc2C1=O (centres unmarked) [Example 45] on 5-HT2c (Homo sapiens)?
Result string: 31.6

###

# test-system: 5-HT2a (Homo sapiens, UniProt P28223)
# Construct: purchased Euroscreen/BioSignal Packard Inc
# Sequence (P28223 whole entry): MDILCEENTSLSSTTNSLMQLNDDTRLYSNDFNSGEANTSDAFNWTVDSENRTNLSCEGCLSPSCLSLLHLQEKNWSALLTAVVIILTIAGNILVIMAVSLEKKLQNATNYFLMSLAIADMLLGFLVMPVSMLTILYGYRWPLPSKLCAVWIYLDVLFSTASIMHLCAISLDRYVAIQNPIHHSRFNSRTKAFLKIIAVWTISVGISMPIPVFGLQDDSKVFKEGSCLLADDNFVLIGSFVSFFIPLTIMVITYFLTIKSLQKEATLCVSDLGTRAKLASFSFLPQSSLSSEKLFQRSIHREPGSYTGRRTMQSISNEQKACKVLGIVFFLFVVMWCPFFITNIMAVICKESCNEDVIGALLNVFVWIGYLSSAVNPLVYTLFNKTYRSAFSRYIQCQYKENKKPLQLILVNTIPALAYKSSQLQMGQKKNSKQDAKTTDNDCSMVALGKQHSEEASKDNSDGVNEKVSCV
# method-description: Radioligand binding, 5-HT2a ([3H]Ketanserin)
# particulars: read-out: Binding affinity (Inhibition rate % at 10 μM) 5HT2a
recorded-metric: inhibition at 10 µM (%)
Output spec: scalar in %, unitless text.

Query string: Which measured inhibition at 10 µM belongs to CC1(c2ccccc2)C(=O)Nc2cc(Cl)c(Cl)cc2C1=O (centres unmarked) [Example 9] , tested on 5-HT2a (Homo sapiens, UniProt P28223)?
Result string: 16.6

Query string: Param readout= inhibition at 10 µM; system= 5-HT2a (Homo sapiens, UniProt P28223); entry= COc1ccc(C2(C)C(=O)Nc3cc(Cl)cc(Cl)c3C2=O)cc1[N+](=O)[O-] (centres unmarked) [Example 21] ; returns value.
Result string: 16.3

Query string: Give inhibition at 10 µM (5-HT2a (Homo sapiens, UniProt P28223)) of the following molecule: CC1(c2ccc(N)cc2)C(=O)Nc2cc(Cl)cc(Cl)c2C1=O (centres unmarked) [Example 15]
Result string: 16.9

Query string: # query: inhibition at 10 µM | item CC1(c2ccc(O)c(Br)c2)C(=O)Nc2cc(Cl)cc(Cl)c2C1=O (centres unmarked) [Example 24] | system: 5-HT2a (Homo sapiens, UniProt P28223)
Result string: 11.5

Query string: Report inhibition at 10 µM for C[C@H](NC(=O)Oc1ccc(C2(C)C(=O)Nc3cc(Cl)cc(Cl)c3C2=O)cc1)c1ccccc1 (some centres unmarked) [Example 25] tested on 5-HT2a (Homo sapiens, UniProt P28223).
Result string: 16.7

Query string: Lookup: inhibition at 10 µM / 5-HT2a (Homo sapiens, UniProt P28223) / CC1(c2ccccc2)C(=O)Nc2ccccc2C1=O (centres unmarked) [Example 2, 3-methyl-3-phenyl-1H-quinoline-2,4-dione]
Result string: 8.4

Query string: Query inhibition at 10 µM on 5-HT2a (Homo sapiens, UniProt P28223) for COc1ccc(C2(C)C(=O)Nc3cc(N4CCN(C)CC4)cc(Cl)c3C2=O)cc1 (centres unmarked) [Example 46]
Result string: 16.5

Query string: Param readout = inhibition at 10 µM; param system = 5-HT2a (Homo sapiens, UniProt P28223); param query = CC1(c2ccc(N)cc2)C(=O)Nc2cc(Cl)ccc2C1=O (centres unmarked) [Example 38] ; response: value
Result string: 31.5
